Tested on: 439559-082-T-J2-PDC spheroids viability
assay_remarks: Anticancer human tumor 439559-082-T-J2-PDC patient-derived colon adenocarcinoma cell line growth inhibition [GQUAD]; active = viability on the fitted dose curve at most 10% of control; inactive = the rest
condition_notes: second compound 1 µM; first compound 10 µM
Lab note: assign the record to one of 1 (active), -1 (inactive)

CCCS(=O)(=O)Nc1ccc(F)c(C(=O)c2c[nH]c3ncc(-c4ccc(Cl)cc4)cc23)c1F + Cc1[nH]c2ccc(F)cc2c1-c1nc2c3cccnc3c3ncccc3c2[nH]1    -1

As a next step, examine the molecule that follows.
Lab log entry: CC(=O)O[C@H]1C(=O)[C@@]2(C)[C@H]([C@H](OC(=O)c3ccccc3)[C@]3(O)C[C@H](OC(=O)[C@H](O)[C@@H](NC(=O)c4ccccc4)c4ccccc4)C(C)=C1C3(C)C)[C@]1(OC(C)=O)CO[C@@H]1C[C@@H]2O + Cc1[nH]c2ccc(F)cc2c1-c1nc2c3cccnc3c3ncccc3c2[nH]1 — outcome as called in the assay?
1

* * *

Tested on: 439559-082-T-J2-PDC spheroids viability
assay_remarks: Anticancer human tumor 439559-082-T-J2-PDC cell line growth inhibition [GQUAD]; active means viability on the fitted dose curve at most 10% of control; inactive means the rest;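 also: spheroids exposed to the agents for 7 days before readout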
condition_notes: second compound 1 µM; first compound 10 µM
Lab note: assign the record to one of active, inactive

CC1COCCN1c1cc(C2(S(C)(=N)=O)CC2)nc(-c2ccnc3[nH]ccc23)n1 (stereo unspecified) + Cc1[nH]c2ccc(F)cc2c1-c1nc2c3cccnc3c3ncccc3c2[nH]1    inactive

Lab log entry: O=c1[nH]cc(F)c(=O)[nH]1 + CN(C)c1ccc(Nc2c3ccc(NC(=O)CCN4CCCC4)cc3nc3cc(NC(=O)CCN4CCCC4)ccc23)cc1 — outcome as called in the assay?
inactive

And O=c1[nH]cc(F)c(=O)[nH]1 + Cc1cnc(CNC(=O)c2c(=O)c3ccc(N4CCCN(C)CC4)nc3n3c2sc2ccccc23)cn1 ?
inactive

And C#Cc1c(F)ccc2cc(O)cc(-c3ncc4c(N5CC6CCC(C5)N6)nc(OCC56CCCN5CC(F)C6)nc4c3F)c12 (stereo unspecified) + Cc1cnc(CNC(=O)c2c(=O)c3ccc(N4CCCN(C)CC4)nc3n3c2sc2ccccc23)cn1 ?
inactive

* * *

System: 439559-082-T-J2-PDC spheroids viability
assay_remarks: Anticancer human tumor 439559-082-T-J2-PDC cell line growth inhibition [GQUAD];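 also: spheroids exposed to the agents for 7 days before readout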;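 as to viability, T/C: percent of luminescence signal in DMSO vehicle wells taken as 100% viability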
condition_notes: second compound 10 µM; first compound 10 µM; stronger effect = lower value
Excerpt: DNA G-quadruplex Stabilizer Agents in Combinations in Complex Spheroids A high-throughput screen of multi-cell type tumor spheroids was designed to identify active combinations of DNA G-quadruplex stabilizer agents and targeted small molecules. […] Compounds. […] If the clinical Cmax for an agent had not been determined, the highest concentration tested was 10 microM. […]
observable: viability, T/C (%)
# value in %; strip the unit string

COc1ncnc(C2CC2)c1-c1ncc2cnn(Cc3ccc(-c4nc(C(F)(F)F)cn4C(C)C)cc3)c2n1 + Cc1[nH]c2ccc(F)cc2c1-c1nc2c3cccnc3c3ncccc3c2[nH]1    60.7

What value of viability, T/C has been reported for the following molecule? C#Cc1c(F)ccc2cc(O)cc(-c3ncc4c(N5CC6CCC(C5)N6)nc(OCC56CCCN5CC(F)C6)nc4c3F)c12 (stereo unspecified) + Cc1[nH]c2ccc(F)cc2c1-c1nc2c3cccnc3c3ncccc3c2[nH]1
3.31

And CC(C)n1c(=O)n(C)c2cnc3cc(F)c(-c4ccc(OCCCN5CCCCC5)nc4)cc3c21 + Cc1cnc(CNC(=O)c2c(=O)c3ccc(N4CCCN(C)CC4)nc3n3c2sc2ccccc23)cn1 ?
39.8

And O=C(c1cc(Cc2n[nH]c(=O)c3ccccc23)ccc1F)N1CCN(C(=O)C2CC2)CC1 + CN(C)c1ccc(Nc2c3ccc(NC(=O)CCN4CCCC4)cc3nc3cc(NC(=O)CCN4CCCC4)ccc23)cc1 ?
94.9

And Nc1ccn(C2OC(CO)C(O)C2(F)F)c(=O)n1 (stereo unspecified) + CN(C)c1ccc(Nc2c3ccc(NC(=O)CCN4CCCC4)cc3nc3cc(NC(=O)CCN4CCCC4)ccc23)cc1 ?
18.7

And C=CC(=O)N1CCN(c2nc(=O)n(-c3c(C)ccnc3C(C)C)c3nc(-c4c(O)cccc4F)c(F)cc23)C(C)C1 (stereo unspecified) + Cc1cnc(CNC(=O)c2c(=O)c3ccc(N4CCCN(C)CC4)nc3n3c2sc2ccccc23)cn1 ?
72.6

* * *

In this section, each of the molecules is paired with its reported IC50.
Tested on: 439559-082-T-J2-PDC spheroids viability
assay_remarks: Anticancer human tumor 439559-082-T-J2-PDC cell line growth inhibition [GQUAD];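 also: spheroids exposed to the agents for 7 days before readout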
condition_notes: curve of first compound; second compound 0.316 µM
Give me the value, and tack the unit on after it.

Reference set, count: 2
C=CCn1c(=O)c2cnc(Nc3ccc(N4CCN(C)CC4)cc3)nc2n1-c1cccc(C(C)(C)O)n1 + Cc1cnc(CNC(=O)c2c(=O)c3ccc(N4CCCN(C)CC4)nc3n3c2sc2ccccc23)cn1    1740 nM
CCCS(=O)(=O)Nc1ccc(F)c(C(=O)c2c[nH]c3ncc(-c4ccc(Cl)cc4)cc23)c1F + CN(C)c1ccc(Nc2c3ccc(NC(=O)CCN4CCCC4)cc3nc3cc(NC(=O)CCN4CCCC4)ccc23)cc1    9610 nM

Consider the record given below.
What value of IC50 has been reported for the following molecule? CC(C)(O)C1CCC(Nc2ccc3ncc(-c4cccc(C(F)(F)F)c4)n3n2)CC1 (stereo not drawn) + Cc1cnc(CNC(=O)c2c(=O)c3ccc(N4CCCN(C)CC4)nc3n3c2sc2ccccc23)cn1
1460 nM

* * *

System: 439559-082-T-J2-PDC spheroids viability
assay_remarks: Anticancer human tumor 439559-082-T-J2-PDC cell line growth inhibition [GQUAD]; active = viability on the fitted dose curve at most 10% of control; inactive = the rest;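 also: spheroids exposed to the agents for 7 days before readout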
condition_notes: second compound 0.316 µM; first compound 10 µM
Lab note: assign the record to one of True = active, False = inactive

Lab log entry: CC1COCCN1c1cc(C2(S(C)(=N)=O)CC2)nc(-c2ccnc3[nH]ccc23)n1 (centres undefined) + Cc1cnc(CNC(=O)c2c(=O)c3ccc(N4CCCN(C)CC4)nc3n3c2sc2ccccc23)cn1 — outcome as called in the assay?
False

* * *

Test system: 439559-082-T-J2-PDC spheroids viability
assay_remarks: Anticancer human tumor 439559-082-T-J2-PDC cell line growth inhibition [GQUAD];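 also: spheroids exposed to the agents for 7 days before readout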;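 as to viability, T/C: percent of luminescence signal in DMSO vehicle wells taken as 100% viability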
condition_notes: second compound 0.1 µM; first compound 3.16 µM; stronger effect = lower value
In this section, each of the molecules is paired with its reported viability, T/C.
# value in %; strip the unit string

Reference set, count: 5
C=CC(=O)N1CCN(c2nc(=O)n(-c3c(C)ccnc3C(C)C)c3nc(-c4c(O)cccc4F)c(F)cc23)C(C)C1 (configuration not stated) + CN(C)c1ccc(Nc2c3ccc(NC(=O)CCN4CCCC4)cc3nc3cc(NC(=O)CCN4CCCC4)ccc23)cc1    111
CCCS(=O)(=O)Nc1ccc(F)c(C(=O)c2c[nH]c3ncc(-c4ccc(Cl)cc4)cc23)c1F + Cc1[nH]c2ccc(F)cc2c1-c1nc2c3cccnc3c3ncccc3c2[nH]1    43.5
O=C(c1cc(Cc2n[nH]c(=O)c3ccccc23)ccc1F)N1CCN(C(=O)C2CC2)CC1 + Cc1[nH]c2ccc(F)cc2c1-c1nc2c3cccnc3c3ncccc3c2[nH]1    103
Cc1cccc(N(C)C(=O)C2C(O)CCN2c2nc(C)cc(C(F)(F)F)c2C#N)c1 (configuration not stated) + CN(C)c1ccc(Nc2c3ccc(NC(=O)CCN4CCCC4)cc3nc3cc(NC(=O)CCN4CCCC4)ccc23)cc1    95.5
CC1COCCN1c1cc(-c2ccnn2C)c2ccnc(-c3ccn[nH]3)c2n1 (configuration not stated) + CN(C)c1ccc(Nc2c3ccc(NC(=O)CCN4CCCC4)cc3nc3cc(NC(=O)CCN4CCCC4)ccc23)cc1    30.9

What value of viability, T/C has been reported for the following molecule? Nc1ccn(C2OC(CO)C(O)C2(F)F)c(=O)n1 (configuration not stated) + CN(C)c1ccc(Nc2c3ccc(NC(=O)CCN4CCCC4)cc3nc3cc(NC(=O)CCN4CCCC4)ccc23)cc1
26.2

And CC(C)(O)C1CCC(Nc2ccc3ncc(-c4cccc(C(F)(F)F)c4)n3n2)CC1 (configuration not stated) + Cc1[nH]c2ccc(F)cc2c1-c1nc2c3cccnc3c3ncccc3c2[nH]1 ?
66.2

And C=CCn1c(=O)c2cnc(Nc3ccc(N4CCN(C)CC4)cc3)nc2n1-c1cccc(C(C)(C)O)n1 + CN(C)c1ccc(Nc2c3ccc(NC(=O)CCN4CCCC4)cc3nc3cc(NC(=O)CCN4CCCC4)ccc23)cc1 ?
54.4

And CC(C)n1c(=O)n(C)c2cnc3cc(F)c(-c4ccc(OCCCN5CCCCC5)nc4)cc3c21 + Cc1[nH]c2ccc(F)cc2c1-c1nc2c3cccnc3c3ncccc3c2[nH]1 ?
139

And CC1COCCN1c1cc(C2(O)CC3CCC(C2)O3)c2cnn(-c3ccn[nH]3)c2n1 (configuration not stated) + CN(C)c1ccc(Nc2c3ccc(NC(=O)CCN4CCCC4)cc3nc3cc(NC(=O)CCN4CCCC4)ccc23)cc1 ?
33.9

And CC1COCCN1c1cc(C2(O)CC3CCC(C2)O3)c2cnn(-c3ccn[nH]3)c2n1 (configuration not stated) + Cc1cnc(CNC(=O)c2c(=O)c3ccc(N4CCCN(C)CC4)nc3n3c2sc2ccccc23)cn1 ?
34.6

And CC(C)(O)C1CCC(Nc2ccc3ncc(-c4cccc(C(F)(F)F)c4)n3n2)CC1 (configuration not stated) + Cc1cnc(CNC(=O)c2c(=O)c3ccc(N4CCCN(C)CC4)nc3n3c2sc2ccccc23)cn1 ?
19.9

And O=c1[nH]cc(F)c(=O)[nH]1 + CN(C)c1ccc(Nc2c3ccc(NC(=O)CCN4CCCC4)cc3nc3cc(NC(=O)CCN4CCCC4)ccc23)cc1 ?
77.2

And COc1ncnc(C2CC2)c1-c1ncc2cnn(Cc3ccc(-c4nc(C(F)(F)F)cn4C(C)C)cc3)c2n1 + Cc1cnc(CNC(=O)c2c(=O)c3ccc(N4CCCN(C)CC4)nc3n3c2sc2ccccc23)cn1 ?
97.6

And CC(C)(O)C1CCC(Nc2ccc3ncc(-c4cccc(C(F)(F)F)c4)n3n2)CC1 (configuration not stated) + CN(C)c1ccc(Nc2c3ccc(NC(=O)CCN4CCCC4)cc3nc3cc(NC(=O)CCN4CCCC4)ccc23)cc1 ?
13.9

And O=C(NO)c1cnc(N2CCN(S(=O)(=O)c3ccc4ccccc4c3)CC2)nc1 + Cc1cnc(CNC(=O)c2c(=O)c3ccc(N4CCCN(C)CC4)nc3n3c2sc2ccccc23)cn1 ?
0.24

And COc1cc(C2c3cc4c(cc3C(OC3OC5COC(C)OC5C(O)C3O)C3COC(=O)C23)OCO4)cc(OC)c1O (configuration not stated) + Cc1cnc(CNC(=O)c2c(=O)c3ccc(N4CCCN(C)CC4)nc3n3c2sc2ccccc23)cn1 ?
80.5
